# Tested on: Yap1 mRNA
# PROTOCOL: Antisense inhibition of human Yap1 in A-431 cells by cEt gapmers, single dose (Example 2, RTS4814)
# Format: cell-based
# COND: A-431 cells, 5,000 cells per well, free uptake, 2,000 nM modified oligonucleotide, approx. 48 hours, RTS4814, normalized to RIBOGREEN; Table 4; asterisk (*) = targets amplicon region of primer probe set
Strand notation (5' to 3'): a small letter for the sugar, then the base; units joined by * are phosphorothioate-linked, units joined directly phosphodiester-linked; [ ] holds rarer units or linkages, { } end groups; capitals alone tell only the bases. k = constrained ethyl (cEt); [5mC] = 5-methylcytosine; d = 2'-deoxy (DNA)
Give measured YAP1 (% UTC) for each item. Keep answers brief.
One number for each entry, in % UTC.

{"SUBSTANCE": "716550 (kG*k[5mC]*kA*d[5mC]*dT*dG*dA*dA*dT*dA*dT*dT*dG*k[5mC]*k[5mC]*kA; antisense) [Compound 716550]", "TEST_SYSTEM": "Yap1 mRNA", "RECORDED_METRIC": "YAP1 (% UTC)", "RECORDED_VALUE": 77}

Please supply YAP1 (% UTC) for each of the following items, keeping them in order.
1. 716439 (kG*kT*kA*dT*dT*dT*dA*dA*dT*dA*dT*d[5mC]*dA*kG*kA*kT; antisense) [Compound 716439]
2. 716487 (kA*k[5mC]*kA*d[5mC]*dA*dT*dA*d[5mC]*dT*d[5mC]*dT*dA*dG*kT*kT*kA; antisense) [Compound 716487]
3. 716460 (kT*kA*kT*dT*d[5mC]*dT*dA*dA*dA*dT*dG*d[5mC]*dA*kT*kA*k[5mC]; antisense) [Compound 716460]

1: 77; 2: 64; 3: 86

Quick batch: YAP1 (% UTC) for everything below.
1. 716508 (antisense k[5mC]*kT*kA*dG*dG*dT*dA*dG*dA*dA*dT*dT*dT*k[5mC]*kA*kT) [Compound 716508]
2. 716373 (k[5mC]*kA*kA*d[5mC]*dT*dG*d[5mC]*dA*dG*dA*dG*dA*dA*kG*k[5mC]*kT; antisense) [Compound 716373]

67
69
